target-of-assay: rat histamine H3 receptor (Rattus norvegicus)
Construct: encoding the entire 445-amino-acid rat histamine H3 receptor; expressed in transfected cells; membrane preparation
Sequence (Q9QYN8 whole entry): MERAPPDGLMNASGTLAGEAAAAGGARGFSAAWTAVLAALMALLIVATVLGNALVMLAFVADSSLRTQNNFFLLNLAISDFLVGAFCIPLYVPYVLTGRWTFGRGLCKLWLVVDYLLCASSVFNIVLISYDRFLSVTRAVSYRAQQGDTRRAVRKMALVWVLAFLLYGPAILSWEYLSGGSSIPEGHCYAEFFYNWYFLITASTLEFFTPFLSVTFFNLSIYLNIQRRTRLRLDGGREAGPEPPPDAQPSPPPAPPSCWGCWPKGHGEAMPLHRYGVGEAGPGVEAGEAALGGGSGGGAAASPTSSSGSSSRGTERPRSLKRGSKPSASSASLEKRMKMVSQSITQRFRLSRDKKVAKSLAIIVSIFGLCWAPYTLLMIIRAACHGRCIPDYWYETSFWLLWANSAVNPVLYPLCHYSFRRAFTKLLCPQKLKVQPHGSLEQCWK
assay-name: Rat H3 radioligand binding ([3H]-N-alpha-methylhistamine, SPA)
condition-info: Table C; rat H3 binding, given as numeric bound; read-out: Rat H3 Ki
assay-endpoint: Ki

Consider c1cnc(Oc2ccc3c(c2)CCC2(CCN(C4CCC4)CC2)O3)nc1 . Its measured Ki is > 300 nM

---

Reported melting point values for a set of molecules

The cases that follow already have their melting point on record.
INSERT INTO results (molecule, assay_endpoint, result) VALUES
  ('CC(=O)N1CCCN(c2ccc3c(c2)CCC2(CCN(C4CCC4)CC2)O3)CC1', 'melting point', '276 to 278 °C'),
  ('CC(C)C(=O)N1CCC(Oc2ccc3c(c2)CCC2(CCN(C4CCC4)CC2)O3)CC1', 'melting point', '239 to 241 °C'),
  ('CCNC(=O)C1CCC(O)(c2ccc3c(c2)COC2(CCN(C4CCC4)CC2)O3)CC1 (centres unmarked)', 'melting point', '195 to 196 °C'),
  ('O=c1ccc(C(O)c2ccc3c(c2)COC2(CCN(C4CCC4)CC2)O3)c[nH]1 (centres unmarked)', 'melting point', '217 to 219 °C'),
  ('c1cc(Nc2ccc3c(c2)COC2(CCN(C4CCC4)CC2)O3)ncn1', 'melting point', '170 to 171 °C'),
  ('c1cc(COc2ccc3c(c2)CCC2(CCN(C4CCC4)CC2)O3)ccn1', 'melting point', '233 to 235 °C'),
  ('c1cncc(CNc2ccc3c(c2)COC2(CCN(C4CCC4)CC2)O3)c1', 'melting point', '117 to 118 °C');

Here is the next item to consider.
Consider Cc1cnc(C)c(-c2ccc3c(c2)COC2(CCN(C4CCC4)CC2)O3)n1 . Its measured melting point is 102 to 103 °C

---

assay-endpoint: melting point

The cases that follow already have their melting point on record.
INSERT INTO measurements (item_smiles, assay_endpoint, result) VALUES
  ('Cn1cc(C(=O)Nc2ccc3c(c2)COC2(CCN(C4CCC4)CC2)O3)cn1', 'melting point', '227 to 228 °C'),
  ('O=C(C1CC1)N1CCN(c2ccc3c(c2)CCC2(CCN(C4CCC4)CC2)O3)CC1', 'melting point', '169 to 171 °C'),
  ('COc1ncccc1-c1ccc2c(c1)COC1(CCN(C3CCC3)CC1)O2', 'melting point', '210 to 212 °C');

Here is the next item to consider.
Consider CN(C)C(=O)c1ccc(COc2ccc3c(c2)CCC2(CCN(C4CCC4)CC2)O3)nc1 . Its measured melting point is 75 to 78 °C

---

target-of-assay: human H3 receptor (Homo sapiens, UniProt Q9Y5N1)
Construct: expressed in transfected cells
Sequence (Q9Y5N1 whole entry): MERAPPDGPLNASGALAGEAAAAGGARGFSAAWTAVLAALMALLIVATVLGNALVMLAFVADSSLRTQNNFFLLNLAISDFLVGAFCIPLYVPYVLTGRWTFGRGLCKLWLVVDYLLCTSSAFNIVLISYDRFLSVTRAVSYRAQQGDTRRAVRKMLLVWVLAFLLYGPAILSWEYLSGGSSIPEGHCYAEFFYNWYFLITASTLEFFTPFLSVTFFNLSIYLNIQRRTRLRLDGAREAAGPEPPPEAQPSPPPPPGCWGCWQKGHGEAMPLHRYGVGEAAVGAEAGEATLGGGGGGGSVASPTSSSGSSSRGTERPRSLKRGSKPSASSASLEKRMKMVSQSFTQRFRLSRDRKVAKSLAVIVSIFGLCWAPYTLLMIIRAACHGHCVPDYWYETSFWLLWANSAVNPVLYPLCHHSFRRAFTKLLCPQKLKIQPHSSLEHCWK
assay-name: Human H3 radioligand binding ([3H]-N-alpha-methylhistamine, SPA)
condition-info: human H3 binding, Table D; read-out: Human H3 Ki
pKi: −log10 of the molar value.
assay-endpoint: pKi

INSERT INTO measurements (molecule, result) VALUES
  ('CNC(=O)c1cc(-c2ccc3c(c2)CCC2(CCN(C4CCC4)C2)O3)ccc1Cl (centres unmarked)', '> 6.70'),
  ('CCc1cc(-c2ccc3c(c2)COC2(CCN(C4CCC4)CC2)O3)c(C)[nH]c1=O', '> 6.70'),
  ('O=C(NC[C@@H]1CCCO1)c1c(F)cc(-c2ccc3c(c2)COC2(CCN(C4CCC4)CC2)O3)cc1F', '> 6.70'),
  ('CNC(=O)c1ccc(-c2ccc3c(c2)COC2(CCN(C4CCC4)CC2)O3)c(Cl)c1', '> 6.70'),
  ('Cc1cc(=O)[nH]c(C)c1-c1ccc2c(c1)COC1(CCN(C3CCC3)CC1)O2', '> 6.70');

Consider Cc1cc(=O)n(C(C)C)cc1-c1ccc2c(c1)COC1(CCN(C3CCC3)CC1)O2 . Its measured pKi is > 6.70

Consider Cc1cc(=O)n(C(F)F)cc1-c1ccc2c(c1)COC1(CCN(C3CCC3)CC1)O2 . Its measured pKi is > 6.70

Consider c1c[nH]c(-c2ccc3c(c2)COC2(CCN(C4CCC4)CC2)O3)c1 . Its measured pKi is > 6.70

Hello, the source for this data is patent US8513232B2, in case you need it.
